experiment: Inhibition over 48 hr of BAL strain HIV infrction of HeLa Magi cells expressing CCR5
The entries below come with measured IC50 values attached.
Response body: numeric value in nM, unit text excluded.

Worked cases, IC50 given:
1. CCCN(c1ncc(F)cn1)C1CCN(C[C@H]2CN([C@H](CC3CCC3)C(=O)O)C[C@@H]2c2cccc(F)c2)CC1: 33
2. CCCN(c1cccnc1)C1CCN(C[C@H]2CN([C@@H](C(=O)O)C3CCCCC3)C[C@@H]2c2ccccc2)CC1: 33
3. CCCN(c1nccc(OC)n1)C1CCN(C[C@H]2CN([C@H](CC3CCC3)C(=O)O)C[C@@H]2c2cccc(F)c2)CC1: 100
4. CCCN(c1nccc(C(F)(F)F)n1)C1CCN(C[C@H]2CN([C@H](CC3CCC3)C(=O)O)C[C@@H]2c2cccc(F)c2)CC1: 450
5. CCCN(c1ncccn1)C1CCN(C[C@H]2CN([C@@H](C(=O)O)C3CCCCC3)C[C@@H]2c2cccc(F)c2)CC1: 33
6. C=CCN(c1ccc(C(F)(F)F)cn1)C1CCN(C[C@H]2CN(C(=O)C3CCCCC3)C[C@@H]2c2ccccc2)CC1: 37
7. CCCN(c1ncccn1)C1CCN(C[C@H]2CN([C@H](CC3CCC3)C(=O)O)C[C@@H]2c2cccc(F)c2)CC1: 11
8. C=CCN(c1ccccn1)C1CCN(C[C@H]2CN(C(=O)C3CCCCC3)C[C@@H]2c2ccccc2)CC1: 11

Below: the item to evaluate.
Input: Quick check: IC50 of CCCN(c1ncc(C(F)(F)F)cn1)C1CCN(C[C@H]2CN([C@H](CC3CCC3)C(=O)O)C[C@@H]2c2cccc(F)c2)CC1 ?
Output: 100
